Each recorded value in this set is attributed to the nanobody polyreactivity screen of Harvey et al. (2022).

# test_summary: yeast display, Sf9 membrane polyspecificity reagent, FACS + sequencing; frameworks hold sequencing errors
endpoint: polyreactivity (PSR sort gate)

QVQLEDSGGGLVQAGGSLRLSCAASGSTFRYYTMGWYRQAPGKEREFVASIRTSGGSTYADSVKGRFTISRDNAKNTVYLQMNSLKPEDTAVYYCAARGGYRYTRYDYWGQGTQVTVSS : high polyreactivity
QVQLVESGGGLVQAGGSLRLSCAASGRTFAVNAMGWYRQAPGTERELVAAISLSGGRTYYADSVKGRFTISRDNAKNTVSLQMNSLKPEDTAVYYCAASRHFARHRGYYFRYDYWGQGTQVTVSS : high polyreactivity
QVQLVESGGGLVQAGGSLRLSCAASGRTFVPYAMGRYRQAPGKERELVAAISSSGGSTYYADSVKGRFTISRDNAKNTVYLQMNSLKPEDTAVYFCAAKSRKGGDYWGQGTQVTVSS : high polyreactivity
QVQLVESGGGLVQAGGSLRLSCAASGYNFGVYAMGWYRQAPGKERELVAAINGGDSTYYADSVKGRFTISRDNAKNTVYLQMNSLKPEDTAVYYCAADPYSVYGGDYWGQGTQVTVSS : low polyreactivity
QVQLVESGGGLVQAGGSLRLSCAASGFIFDKNAMGWYRQAPGKERELVATITSGGSTYYADSVKGRFTISRDNAKNTVYFQMNSLKPDETAVYYCAALDYGYRWYRYYYWGQGTQVTVSS : high polyreactivity

IN: # lookup: polyreactivity (PSR sort gate) of QVQLVESGGGLVQAGGSLRLSCAASGYIFIVNAMGSYRQAPGKERELVAAITDRGGSTYYADSVKGRFTISRDNAKNTVYLQMNSLKPEVTAVYYCAAELVHRLWYRDVHFDYWGQGTQVTVSS
OUT: low polyreactivity

IN: # lookup: polyreactivity (PSR sort gate) of QVQLLESGGGLVQAGGSLRLSCAASGRTFYRTAKGWYRQAPGKERELVASITRSGNTNYADSVKGRFTISRDNAKNTVYLQMNSLKPEDTAVYYCAARPWLRNKYDYWGQGTQVTVSS
OUT: high polyreactivity

IN: # lookup: polyreactivity (PSR sort gate) of QVQLVESGGGIVQAGGSLRLSCAASGRTFPRYAMGWYRQAPGKERELVAAISVRAGITYYADSVKGRFTISRDNAKNTVYLQMNSLKPEDTAVYYCAKDHWTTSYDEGDYWGQGTQVTVSS
OUT: low polyreactivity

IN: # lookup: polyreactivity (PSR sort gate) of QVQLVESGGGLVQAGGSLRLSCAASGSTFLRNVMGWYRQAPGKERELVAAISSRGGSTHYADSVKGRFTISRDNAKNTDYLQMNSLKPEDTAVYYCNAERTAAQYVRAAYDYWGQGTQVTVSS
OUT: low polyreactivity

IN: # lookup: polyreactivity (PSR sort gate) of QVQLVESGGGLVQAGGSLRLSCAASGSIFRVYGMGWYRQAPGKERELVAAITWSGGSTYYADSVKGRFTISRDNAKNTVYLQMNSLKPEDTAVYYCNADKFRRYGYWGQGTQVTVSS
OUT: high polyreactivity

IN: # lookup: polyreactivity (PSR sort gate) of QVQLVESGGGLVQAGGSLRLSCAASGSTFRIYAMGWYRQAPGKERELVAAITSGGDTNYADSVKGRFTISRDNANNTVYLQMKSLKPEDTSVYYCAADGHSVYTELDYWGQGTQVTVSS
OUT: low polyreactivity
